biological target: Neuropeptide Y receptor type 1 (Homo sapiens, UniProt P25929); test: Displacement of [3H]-UR-MK114 from Y1R in human SK-N-MC cells; type: cell-based
Sequence (P25929 whole entry): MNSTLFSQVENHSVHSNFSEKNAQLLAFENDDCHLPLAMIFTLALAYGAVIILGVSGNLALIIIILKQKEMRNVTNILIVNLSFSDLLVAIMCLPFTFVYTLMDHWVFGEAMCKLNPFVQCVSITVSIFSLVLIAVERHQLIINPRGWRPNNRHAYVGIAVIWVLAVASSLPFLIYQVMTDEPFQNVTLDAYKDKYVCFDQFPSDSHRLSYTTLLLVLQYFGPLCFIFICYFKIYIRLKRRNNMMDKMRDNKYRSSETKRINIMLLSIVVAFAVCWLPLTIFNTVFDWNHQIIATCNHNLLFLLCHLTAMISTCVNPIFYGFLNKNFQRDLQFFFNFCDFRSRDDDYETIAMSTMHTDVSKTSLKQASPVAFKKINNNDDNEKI
Mark label 1 only when Ki stays strictly below 30 nM. Values equal to the cut-off are label 0.

>  <structure_smiles_string>
Cc1cc(/C=C/c2cc3c4c(c2)CCCN4CCC3)cc(C)[n+]1CCOCCOCCOCCC(=O)/N=C(/N)NCCC[C@@H](NC(=O)C(c1ccccc1)c1ccccc1)C(=O)NCc1ccc(O)cc1.O=C([O-])C(F)(F)F

>  <assigned_class>
label 0

$$$$
>  <structure_smiles_string>
Cc1cc(/C=C/c2cc3c4c(c2)CCCN4CCC3)cc(C)[n+]1CCCCCC(=O)/N=C(/N)NCCC[C@@H](NC(=O)C(c1ccccc1)c1ccccc1)C(=O)NCc1ccc(O)cc1.O=C([O-])C(F)(F)F

>  <assigned_class>
label 1

$$$$
>  <structure_smiles_string>
Cc1cc(/C=C/c2cc3c4c(c2)CCCN4CCC3)cc(C)[n+]1CCNC(=O)CCCC(=O)/N=C(/N)NCCC[C@@H](NC(=O)C(c1ccccc1)c1ccccc1)C(=O)NCc1ccc(O)cc1.O=C([O-])C(F)(F)F

>  <assigned_class>
label 1

$$$$
>  <structure_smiles_string>
Cc1cc(/C=C/C=C/c2ccc(N(C)C)cc2)cc(C)[n+]1CCCCNC(=O)/N=C(/N)NCCC[C@@H](NC(=O)C(c1ccccc1)c1ccccc1)C(=O)NCc1ccc(O)cc1.O=C([O-])C(F)(F)F

>  <assigned_class>
label 0

$$$$
>  <structure_smiles_string>
NCCCCNC(=O)/N=C(/N)NCCC[C@@H](NC(=O)C(c1ccccc1)c1ccccc1)C(=O)NCc1ccc(O)cc1

>  <assigned_class>
label 1

$$$$
>  <structure_smiles_string>
CN(C)c1ccc(/C=C/C=C/c2sc3ccccc3[n+]2CCCC(=O)NCCCCNC(=O)/N=C(/N)NCCC[C@@H](NC(=O)C(c2ccccc2)c2ccccc2)C(=O)NCc2ccc(O)cc2)cc1.O=C([O-])C(F)(F)F

>  <assigned_class>
label 1

$$$$
>  <structure_smiles_string>
Cc1cc(/C=C/c2cc3c4c(c2)CCCN4CCC3)cc(C)[n+]1CCCCCC(=O)/N=C(/N)NCCC[C@@H](NC(=O)C(c1ccccc1)c1ccccc1)C(=O)NCc1ccc(CNC(N)=O)cc1.O=C([O-])C(F)(F)F

>  <assigned_class>
label 1

$$$$
>  <structure_smiles_string>
Cc1cc(/C=C/C=C2\N(C)c3ccc4ccccc4c3C2(C)C)cc(C)[n+]1CCOCCOCCNC(=O)CCCC(=O)/N=C(/N)NCCC[C@@H](NC(=O)C(c1ccccc1)c1ccccc1)C(=O)NCc1ccc(O)cc1.O=C([O-])C(F)(F)F

>  <assigned_class>
label 0

$$$$
>  <structure_smiles_string>
Cc1cc(/C=C/C=C2\N(C)c3ccc4ccccc4c3C2(C)C)cc(C)[n+]1CCOCCOCCNC(=O)CCCCC(=O)/N=C(/N)NCCC[C@@H](NC(=O)C(c1ccccc1)c1ccccc1)C(=O)NCc1ccc(O)cc1.O=C([O-])C(F)(F)F

>  <assigned_class>
label 0

$$$$
>  <structure_smiles_string>
NCCCCCC(=O)NC(N)=NCCC[C@@H](NC(=O)C(c1ccccc1)c1ccccc1)C(=O)NCc1ccc(O)cc1

>  <assigned_class>
label 1

$$$$
